Assay: A549 lung cancer cell viability effects, profiling panel, resazurin fluorescence, 24 h, PK04 Diversity Set (AID 1171); note: test concentration not given here
Conditions: higher = more signal, called active from +8 up or from −8 down
Entries and their z-score
Write the number on its own, no unit after it.

INSERT INTO measurements (compound, reported_result) VALUES
  ('C=C[C@@H](COC(C)=O)NS(=O)(=O)c1ccc(Br)cc1', -1.82),
  ('COCCOC(=O)N1C(=O)[C@@]2(c3cc(C#CC4=CCCCC4)ccc31)[C@H](c1ccccc1OCCO)N1[C@H](c3ccccc3)[C@H](c3ccccc3)OC(=O)[C@H]1[C@@H]2C(=O)N1CCc2cc(OC)c(OC)cc2C1', -0.926),
  ('O=C(CCCCCCC(=O)Nc1ccccc1)N/N=C/c1ccccc1', 0.589),
  ('O=C1OCC=C[C@H]2OC34C=CCN(c5ccc(Cl)cc5)C(=O)[C@H]3N(CCCCCO)C(=O)[C@@H]4[C@@H]12 (some centres not stated)', -0.283),
  ('CCC[C@@H]1C[C@@]1(CCC)[C@@H](NP(=O)(c1ccccc1)c1ccccc1)c1ccc(Cl)cc1', 0.419),
  ('CC(=O)n1cc(C(O)C2C=CC3C(=O)N(Cc4ccccc4)C(=O)C3N2n2cnnc2)c2ccccc21 (configuration not stated)', -0.756);

The value of z-score measured for the compound "NC(=O)NCC#Cc1ccc2c(c1)[C@]1(C(=O)N2)[C@H](C(=O)Nc2nc3ccccc3s2)[C@H]2C(=O)O[C@H](c3ccccc3)[C@H](c3ccccc3)N2[C@@H]1c1ccc(O)cc1" turned out to be 1.78
